Hey, just so you know, these numbers are from patent US20200317642A1.

- Tested system: human EHMT2 913-1193 (Homo sapiens, UniProt Q96KQ7)
- Construct: recombinant purified human EHMT2 913-1193, Viva; purchased Viva
- Sequence (Q96KQ7 913-1193): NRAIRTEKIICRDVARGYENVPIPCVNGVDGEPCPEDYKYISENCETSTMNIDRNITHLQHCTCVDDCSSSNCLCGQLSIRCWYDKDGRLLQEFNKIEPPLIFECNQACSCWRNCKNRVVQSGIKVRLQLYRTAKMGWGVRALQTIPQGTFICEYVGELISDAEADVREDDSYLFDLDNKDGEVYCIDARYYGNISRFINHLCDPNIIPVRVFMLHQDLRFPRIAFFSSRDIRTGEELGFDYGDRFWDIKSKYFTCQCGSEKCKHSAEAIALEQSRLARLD
- Test: EHMT2 enzyme assay on histone peptide substrate
- Format: biochemical
- Test conditions: Table 3A; histone H3 1-15 peptide, balanced conditions; read-out: EHMT2 (IC50 μM)
# IC50 per entry

See these solved cases before continuing.
{"Compound": "CNCc1cn(-c2c(OC)cc3c(c2F)N=C(NC)C32CCC2)nn1 [Compound A21]", "Tested system": "human EHMT2 913-1193 (Homo sapiens, UniProt Q96KQ7)", "IC50": "0.01 to 0.1 µM"}
{"Compound": "CNc1cc(C)nc(Nc2ccc(OC)c(-n3ncc4c3CCNC4)c2F)n1 [Compound A9]", "Tested system": "human EHMT2 913-1193 (Homo sapiens, UniProt Q96KQ7)", "IC50": "0.1 to 1 µM"}
{"Compound": "CNC1=Nc2cc(-c3cc4n(n3)CCN(C)C4)c(Cl)cc2C12CCC2 [Compound A12]", "Tested system": "human EHMT2 913-1193 (Homo sapiens, UniProt Q96KQ7)", "IC50": "> 1 µM"}
{"Compound": "CNc1cc(C)nc(Nc2ccc(OC)c(-n3cc4c(n3)CCNC4)c2F)n1 [Compound A19]", "Tested system": "human EHMT2 913-1193 (Homo sapiens, UniProt Q96KQ7)", "IC50": "0.1 to 1 µM"}

Below: the item to evaluate.
So what IC50 did CCNCc1cnn(-c2c(OC)ccc(Nc3nc(C)cc(NC)n3)c2F)c1 [Compound A7] get with human EHMT2 913-1193 (Homo sapiens, UniProt Q96KQ7)? 0.1 to 1 µM
